# system-under-test: PLK1 (human) (UniProt P53350)
# Sequence (P53350 whole entry, looked up): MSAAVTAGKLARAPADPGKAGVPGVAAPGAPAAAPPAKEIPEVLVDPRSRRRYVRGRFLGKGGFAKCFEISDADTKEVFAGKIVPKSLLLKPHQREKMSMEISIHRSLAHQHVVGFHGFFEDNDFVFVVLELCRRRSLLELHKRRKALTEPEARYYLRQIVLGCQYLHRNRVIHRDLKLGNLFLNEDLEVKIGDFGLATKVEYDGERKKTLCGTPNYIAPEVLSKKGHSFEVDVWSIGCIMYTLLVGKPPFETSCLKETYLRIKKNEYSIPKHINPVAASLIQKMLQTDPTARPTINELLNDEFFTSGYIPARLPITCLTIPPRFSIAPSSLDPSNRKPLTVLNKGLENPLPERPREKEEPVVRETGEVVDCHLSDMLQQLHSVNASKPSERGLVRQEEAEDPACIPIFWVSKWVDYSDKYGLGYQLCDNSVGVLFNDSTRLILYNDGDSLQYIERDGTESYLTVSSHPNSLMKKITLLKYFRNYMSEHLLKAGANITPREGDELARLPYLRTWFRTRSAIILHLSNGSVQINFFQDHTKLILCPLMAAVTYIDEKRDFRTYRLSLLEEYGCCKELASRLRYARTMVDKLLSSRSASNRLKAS
# protocol-notes: KINOMEscan competition binding
# reported-conditions: compound 10.0 µM
measurement-label: kinase still bound, per cent of control (%)

# count of solved cases: 2
Cn1cc(C2=C(c3ccc(Cl)cc3Cl)C(=O)NC2=O)c2ccccc21 :: 85
O=C1Nc2cc(Br)ccc2/C1=C1/Nc2ccccc2/C1=N\O :: 100

(I) COc1ccc(CNC(=O)Nc2ncc([N+](=O)[O-])s2)cc1
(II) Cc1cnc(-c2cnc(NCCNc3ccc(C#N)cn3)nc2-c2ccc(Cl)cc2Cl)[nH]1
Would you kindly point out which of I and II has the smaller kinase still bound, per cent of control figure? # reply format: chosen label II
(II: 5.4%, I: 100%)

----------
# system-under-test: MAP3K5 (human) (UniProt Q99683)
# Sequence (Q99683 whole entry, looked up): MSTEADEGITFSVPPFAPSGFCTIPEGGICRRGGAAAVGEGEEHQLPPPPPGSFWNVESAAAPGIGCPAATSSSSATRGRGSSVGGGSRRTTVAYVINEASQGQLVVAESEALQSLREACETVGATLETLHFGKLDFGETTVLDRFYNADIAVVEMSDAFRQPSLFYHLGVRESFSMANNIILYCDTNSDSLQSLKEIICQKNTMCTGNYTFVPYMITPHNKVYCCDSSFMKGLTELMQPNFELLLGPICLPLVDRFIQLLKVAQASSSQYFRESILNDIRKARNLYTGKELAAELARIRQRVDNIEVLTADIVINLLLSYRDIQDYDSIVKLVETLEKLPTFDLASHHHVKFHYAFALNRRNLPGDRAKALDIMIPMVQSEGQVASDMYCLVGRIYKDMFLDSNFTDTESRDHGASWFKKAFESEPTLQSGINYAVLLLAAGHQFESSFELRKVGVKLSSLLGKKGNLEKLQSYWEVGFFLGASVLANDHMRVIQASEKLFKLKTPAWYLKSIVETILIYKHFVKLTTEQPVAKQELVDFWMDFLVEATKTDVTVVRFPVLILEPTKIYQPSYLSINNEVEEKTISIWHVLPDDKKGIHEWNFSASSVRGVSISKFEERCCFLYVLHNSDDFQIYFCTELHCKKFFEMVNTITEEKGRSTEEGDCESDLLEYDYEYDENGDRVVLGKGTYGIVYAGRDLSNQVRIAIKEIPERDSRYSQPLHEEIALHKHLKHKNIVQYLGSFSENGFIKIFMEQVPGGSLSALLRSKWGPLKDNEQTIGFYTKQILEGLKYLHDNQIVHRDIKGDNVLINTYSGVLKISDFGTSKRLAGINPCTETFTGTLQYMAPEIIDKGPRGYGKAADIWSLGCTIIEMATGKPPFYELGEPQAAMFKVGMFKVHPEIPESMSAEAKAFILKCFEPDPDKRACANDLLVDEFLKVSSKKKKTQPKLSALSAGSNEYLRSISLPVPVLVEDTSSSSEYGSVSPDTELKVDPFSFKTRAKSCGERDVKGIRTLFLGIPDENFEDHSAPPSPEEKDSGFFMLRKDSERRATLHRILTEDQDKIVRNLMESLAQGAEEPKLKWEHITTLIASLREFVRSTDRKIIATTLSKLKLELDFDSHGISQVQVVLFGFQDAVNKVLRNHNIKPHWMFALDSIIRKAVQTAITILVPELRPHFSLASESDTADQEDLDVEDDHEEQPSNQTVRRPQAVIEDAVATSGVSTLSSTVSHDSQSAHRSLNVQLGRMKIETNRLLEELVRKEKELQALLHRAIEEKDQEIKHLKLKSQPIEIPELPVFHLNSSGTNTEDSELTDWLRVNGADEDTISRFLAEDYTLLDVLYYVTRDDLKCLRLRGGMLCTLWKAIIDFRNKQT
# protocol-notes: KINOMEscan competition binding
# reported-conditions: compound 10.0 µM
measurement-label: kinase still bound, per cent of control (%)

Cc1cnc(-c2cnc(NCCNc3ccc(C#N)cn3)nc2-c2ccc(Cl)cc2Cl)[nH]1 :: 100
O=C1Nc2cc(Br)ccc2/C1=C1/Nc2ccccc2/C1=N\O :: 100
COc1ccc(CNC(=O)Nc2ncc([N+](=O)[O-])s2)cc1 :: 71
Cn1cc(C2=C(c3ccc(Cl)cc3Cl)C(=O)NC2=O)c2ccccc21 :: 100

----------
# system-under-test: TNK1 (human) (UniProt Q13470)
# Sequence (Q13470 whole entry, looked up): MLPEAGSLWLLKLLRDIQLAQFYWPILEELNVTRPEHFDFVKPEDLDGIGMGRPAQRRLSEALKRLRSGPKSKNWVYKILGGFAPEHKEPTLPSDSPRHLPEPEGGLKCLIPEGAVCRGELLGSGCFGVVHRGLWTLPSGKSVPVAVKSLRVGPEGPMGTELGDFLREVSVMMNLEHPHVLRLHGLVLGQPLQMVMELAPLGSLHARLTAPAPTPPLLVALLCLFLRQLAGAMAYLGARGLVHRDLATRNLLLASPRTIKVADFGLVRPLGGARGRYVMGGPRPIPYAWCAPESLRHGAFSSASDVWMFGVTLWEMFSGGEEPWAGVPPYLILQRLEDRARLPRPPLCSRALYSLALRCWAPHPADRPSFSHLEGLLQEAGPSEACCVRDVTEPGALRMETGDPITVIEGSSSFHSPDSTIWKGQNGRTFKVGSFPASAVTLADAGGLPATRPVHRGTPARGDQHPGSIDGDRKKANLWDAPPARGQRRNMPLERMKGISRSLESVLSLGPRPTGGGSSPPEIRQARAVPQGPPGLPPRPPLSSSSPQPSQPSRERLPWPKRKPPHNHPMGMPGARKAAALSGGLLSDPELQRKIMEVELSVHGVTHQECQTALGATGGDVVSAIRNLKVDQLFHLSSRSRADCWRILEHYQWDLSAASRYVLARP
# protocol-notes: KINOMEscan competition binding
# reported-conditions: compound 10.0 µM
measurement-label: kinase still bound, per cent of control (%)

(P) COc1ccc(CNC(=O)Nc2ncc([N+](=O)[O-])s2)cc1
(Q) O=C1Nc2cc(Br)ccc2/C1=C1/Nc2ccccc2/C1=N\O
Higher kinase still bound, per cent of control: P or Q ? Pick one and reply with its label. P
(P: 100%, Q: 16%)

----------
# system-under-test: PRKCE (human)
# protocol-notes: KINOMEscan competition binding
# reported-conditions: compound 10.0 µM
measurement-label: kinase still bound, per cent of control (%)

COc1ccc(CNC(=O)Nc2ncc([N+](=O)[O-])s2)cc1 :: 100
Cn1cc(C2=C(c3ccc(Cl)cc3Cl)C(=O)NC2=O)c2ccccc21 :: 94
O=C1Nc2cc(Br)ccc2/C1=C1/Nc2ccccc2/C1=N\O :: 90
Cc1cnc(-c2cnc(NCCNc3ccc(C#N)cn3)nc2-c2ccc(Cl)cc2Cl)[nH]1 :: 100

----------
# system-under-test: STK11 (human)
# protocol-notes: KINOMEscan competition binding
# reported-conditions: compound 10.0 µM
measurement-label: kinase still bound, per cent of control (%)

(A) COc1ccc(CNC(=O)Nc2ncc([N+](=O)[O-])s2)cc1
(B) O=C1Nc2cc(Br)ccc2/C1=C1/Nc2ccccc2/C1=N\O
Sorting by kinase still bound, per cent of control in descending order, would A or B appear first? Return value: the label identifying the chosen record. A

(I) Cc1cnc(-c2cnc(NCCNc3ccc(C#N)cn3)nc2-c2ccc(Cl)cc2Cl)[nH]1
(II) Cn1cc(C2=C(c3ccc(Cl)cc3Cl)C(=O)NC2=O)c2ccccc21
Look at I and II . Which one has the lower recorded kinase still bound, per cent of control number? Answer by stating the label of the chosen item. II
(II: 60%, I: 100%)

----------
# system-under-test: AXL (human)
# protocol-notes: KINOMEscan competition binding
# reported-conditions: compound 10.0 µM
measurement-label: kinase still bound, per cent of control (%)

Recorded results for 2 molecules are shown here.
COc1ccc(CNC(=O)Nc2ncc([N+](=O)[O-])s2)cc1 :: 100
Cc1cnc(-c2cnc(NCCNc3ccc(C#N)cn3)nc2-c2ccc(Cl)cc2Cl)[nH]1 :: 100

(P) Cn1cc(C2=C(c3ccc(Cl)cc3Cl)C(=O)NC2=O)c2ccccc21
(Q) O=C1Nc2cc(Br)ccc2/C1=C1/Nc2ccccc2/C1=N\O
Would you kindly point out which of P and Q has the smaller kinase still bound, per cent of control figure? // return label of chosen record Q
